Values compiled from the nanobody polyreactivity screen of Harvey et al. (2022).

Assay: yeast display, Sf9 membrane polyspecificity reagent, FACS + sequencing; frameworks hold sequencing errors
Quantity name: polyreactivity (PSR sort gate)

Example entries and their recorded answers appear below.
Sequence input | polyreactivity (PSR sort gate)
QVQLVESGGGLVQAGGSLRLSCAASGRTFLRYTMGWYRQAPGKERELVASITRGGSTYYADSVKGRFTISRDNAKNTVYLQMNSLKPEDTAVYYCAVDVYGSHYYTGSLGKPDGYWGQGTQVTVSS | high polyreactivity
QVQLVESGGGLVQARGSLRLSCAASGSTFGRYVMGWYRQAPGKERELVAAISKNAGSTYYADSVKGRFTISRDNAKNTVYLQMTSLKPEDTAVYYCAADWRTKGYDSLGQGTQVTVSS | high polyreactivity
QVQLVESGGGLVQAGGSLRLSCAASGNIISTYAMGWYRQAPGKERELVAAITSSSARTYYADSVKGRFTISRDNAKNTVYLQLNSLKPEDTAVYYCATRTGIRQDLVHLYRVYYWGQGTQVTVSS | high polyreactivity
QVQLVESGGGLVQAGGILRLSSAASGLILPDYAMGWYRQAPGKERELVAAISEYAGSTYYADSVKGRFTISRDNAKNTVYLQMNSLKPEDTAVYYCAAEVWFYSWYFWYYDGEDYWGQGTQVTVSS | high polyreactivity
QVQLVESGGGIVQAGGILRLSSAASGRIFLGYAMGWSRQAPGKERELVASISGPAGSTNYADSVKGRFTISRDNAKNTVYLQMNSLKPEDTAVYYCAAEERYAYRYDYWGQGTQVTVSS | high polyreactivity

Returns the measured polyreactivity (PSR sort gate) for the input sequence. Input: QVQLVESGGGLVQAGGSLRLSCAASGSTLYTYAMGWYRQAPGKERELVATISWSGSSTYYADSVKGRFTISRDNAKNTVYLQMNSLKPEDTAVYDCAAPYHYWYRLDYWGQGTQVTVSA
high polyreactivity

Returns the measured polyreactivity (PSR sort gate) for the input sequence. Input: QVQLVESGGGLVQAGGSLRLSCAASGRIFSGNTMGWYRQAPGKERELVAAISKSGGRTYYADSVKGRFTISRDNAKNTVYLQMNSLKPEDTAVYYCNADYRSHYLYDYWGQGTQVTVSS
low polyreactivity

====

Test: yeast display, Sf9 membrane polyspecificity reagent, FACS + sequencing; frameworks hold sequencing errors
Quantity name: polyreactivity (PSR sort gate)

Example entries and their recorded answers appear below.
Sequence input | Quantity name | Experimental value
QVQLVESGGGLVQAGGSLSLSCAASGIIFYDYAMGWYRQAPGKERELVAAITSGGSTNYADSVKGRFTISRDNAKNTVYLLMNRLKPEVTAVYYCAATYWSWISLRFYWGLGTQVTVSS | polyreactivity (PSR sort gate) | low polyreactivity
QDQLVESGGGLVQAGGSLRLSCAASGRTFVKYAMGWYRQAPGKERELVAAISRRGGSTYYADSVKGRFTISRDNAKNTVYLQMNSLKPEDTAVYYCAVSIGRYPYRYGYWGQGTQVTVSS | polyreactivity (PSR sort gate) | high polyreactivity
QVQLVESGGGLVQAGGSLRLSCAASGITLLYYAMGWYRQAPGKERELVAAISRRGGSTYYADSVKGRFTISRDNAKNTVYLQMNSLKPEDTAVYYCAAYSPYGGYHYLYDYWGQGTEVTVSS | polyreactivity (PSR sort gate) | high polyreactivity
QVQLVESGGGLVQAGGSLRLSCAASGNTIFHYAMGWYRQAPGKERELVAAISSADSTYYADSVKGRFTISRDNAKNTVYLQMNSLKPEDTAVYYCAKDRPNRPDLYDYWGQGTQVTLSS | polyreactivity (PSR sort gate) | low polyreactivity
QVQLVESGGGLVQAGGSLRLSCAASGGNFWIYTMGWYTQAPGKERELVASITRGGSTYADSVKGRFTISRDKAKNTVYLQMNSLKPEDTAVYYCNAEFRYPWFRWEYDHWGQGTQVTVSS | polyreactivity (PSR sort gate) | low polyreactivity
QVQLVESGGGLVQAGGSLRLSCAASGNTFNNNAMGWYRQAPGKERELVAAISGSGGSTYYADSVKGRFTISRDNAKNTVYLQMNSLKPEDTAVYYCAVRLVHGGKRYGYWGQGTQVTVSS | polyreactivity (PSR sort gate) | high polyreactivity
QVQLVESGGGLVHAGGSLRLSCAASGNTYLYYGLGWYRQAPVKEREMVAAITQSGGTTYYADSVKGRFTISRDNAKNTVYLQMNSLTPEDTAVYYCAATRYYYYWYVYDDRGDYWGQGTQVTVSS | polyreactivity (PSR sort gate) | low polyreactivity
QVQLVESGGGLVQAGGSLRLSCADSGSILIHYTMGWYRQEPGKERELVAAISSTGGSTYYADSVKGRFTISRDNAKNTVYLQMNSLKPEDTAVYYCATGPHQPPYSYLDYDYWGQGTQVTVSS | polyreactivity (PSR sort gate) | low polyreactivity
QVQLVESGGGLVQAGGSLRLSCAASGRIFYAYTMGWYRQAPGKERELVAAISGSGSTYYADSVKGRFTISRDNAKNTVYLQMNSLKPEDTAVYYCAADVTGGRKYDYWGQGTQVTVSS | polyreactivity (PSR sort gate) | low polyreactivity
QVQLVESAGGLVQAGGSLRLSCAASGIIFPVYAMGWYRQAPGKERELVAAITSSGGSTYYADSVKGRFTISRDNAKNTVYLQMNSLKPEDTAVYYFAAVRKSRFDYGGQGTQVTVSS | polyreactivity (PSR sort gate) | high polyreactivity

Next, consider the following sequence.
Returns the measured polyreactivity (PSR sort gate) for the input sequence. Input: QVQLVESGGGLVQAGGSLRLSCAASGSTFYVYVMGWYRQAPGKERELVAAISRSGGRTYYADSVKGRFTISRDNAKNTVYLQMNSLKPEDTSGYYCNARGSRRGGPGYEYWGQGTQVTVSS
high polyreactivity

====

Assay: yeast display, Sf9 membrane polyspecificity reagent, FACS + sequencing; frameworks hold sequencing errors
Quantity name: polyreactivity (PSR sort gate)

Example entries and their recorded answers appear below.
Sequence input | polyreactivity (PSR sort gate)
QVQLLESGGGLVQAGGSLRLSCAASGFTFYRYAMGWYRQAPGKERELVAVISGSGTSTYYADSVKGRFTISRDIAKNTVYLQMNSLKQEDTAVYYCAASQSIFSGHVRYRVDYDSWGQGTQVSVSS | high polyreactivity
QVQLVESGGGLVQAGGSLRLSCAASGSIFWYNAMGWYRQAPGKERELVAAISVGGGSTSSADSVKGRFTISRDNAKNTVYLQMHSLKPEDTAVYYCNSVRYYRLFAHYGEYGYWGQGTQVTVSS | high polyreactivity
QVQLVESGGGLVQAGGSLRLSCAASGSIFEANVMGWYRQAPGKERELVASISSDGTSTYYADSVKGRFTISRDNAKNTVYLQMNSLKPEDTAVYYCNADAGAGWYPDSKYDYDYWGQGTQVTVSS | low polyreactivity
QVQLEESGGGLVQAGGSLRLSCAASGFIFPYYAMGWYRQAHGQERELVAAISRSGGRTYYADSVKGRFTISRDNAKNTVYLQMNSLKPEDTAVYYCNAPFQSEPFDYWGQGTQVTVSS | high polyreactivity
QVQLVESGGGLVQGGGSLRLSCAASGRNFKYNTMGWYRQAPGKERDLVAAISLSSGSGGGTRYADSVKGRFTISRDNAKNSVYLQMNSLKPEDSAVYYCAARHRYTNEYDYWGHGTQVTVSS | low polyreactivity
QVQLVESGGGLVQAGGSLRLSCAASGITFPENDMGWYIKAPGKEREFDADITSSGGNTYYADSVKGRFTISRDNAKNTVYLHMNSLKPEDSAVYYCNADDGYFYVYQGWYDEMDYWGQGTQVTVSS | high polyreactivity

Returns the measured polyreactivity (PSR sort gate) for the input sequence. Input: QVQLVESGGGLVQAGGSLRLSCAASGSTFPLNAMGWYRQAPGKESEFLDAISYRGSSTYYADSVKGRFTISRDNAKNTVYLQMNSLKPEDTAVYYCSANPNTYYYRRGYDYWGQGTQVTVSS
high polyreactivity

Returns the measured polyreactivity (PSR sort gate) for the input sequence. Input: QVQLVESGGGLVQAGGSLRLSCAASGYTFYGYAMGWYRQAPGKERELVAAISWSGTNTNYADSVKGRFTISRDNAKNTVYLQMNSLKPEDTAVYYCAAGYYYRGFHTEDYWGQGTQVTVSS
high polyreactivity

Returns the measured polyreactivity (PSR sort gate) for the input sequence. Input: QVNLLDSGGGLVKAGGSLRLTCAASGSIYHPYTMGLYRQATGKETELVAAISWSGGNTNYADSVKGRFTISRDYAKNTVYLQMNSLKPEDTAVYYFAAAKRDFVEYDYWGEGTQVTVSS
low polyreactivity

Returns the measured polyreactivity (PSR sort gate) for the input sequence. Input: QVQLVESGGGIVQSGGSLRLSCAASGSIFQPYAMGWYRQAPGQEREFVAAISRSGGITYYADSVKGRFTISRDNAKNTVYLQMYSLKPEDTAVYYCATGRQVVRSYSEGDYWGQGTQVTLSS
low polyreactivity

Returns the measured polyreactivity (PSR sort gate) for the input sequence. Input: QVQLVESAGGLVQAGGSLRLSCAASGFTFGWYAMGWYRQAPGKERELVAAISSTGGRTYYADSVKGRFTISRDNAKNTVYLQMNSLKPEDTAVYYCAAAYSYGTEYGYWGQGTQVTVSS
high polyreactivity
